Just for reference, patent US20100267561A1 is where these values come from.

Test system: surinam grass (Brachiaria decumbens)
Assay: Test B pre-/postemergence plant response
Type: in vivo
Conditions: Preemergence, 31 g ai/ha; scale 0 to 100 (0 no effect, 100 complete control)
measuredQuantity: Plant response rating, Surinam Grass
Give the figure only, with no unit attached.

[
  {
    "chemicalString": "CCOC(=O)Oc1cnn(C)c(=O)c1-n1nc(-c2ccc(Cl)cc2)cc1C",
    "testValue": 60
  },
  {
    "chemicalString": "CCc1cc(-c2ccc(Br)cc2)nn1-c1c(O)c(C)nn(C)c1=O",
    "testValue": 100
  },
  {
    "chemicalString": "Cc1cc(-c2ccc(Cl)cc2)nn1-c1c(OS(=O)(=O)c2ccc(Cl)s2)cnn(C)c1=O",
    "testValue": 100
  },
  {
    "chemicalString": "Cc1ccc(-c2ccc(Cl)cc2)cc1-c1c(O)cnn(C)c1=O",
    "testValue": 0
  },
  {
    "chemicalString": "CCc1c(C)c(-c2ccc(Br)cc2)nn1-c1c(O)cnn(C)c1=O",
    "testValue": 98
  }
]

-- ask Look up Plant response rating, Surinam Grass: COc1nn(C)c(=O)c(-n2nc(-c3ccc(Br)cc3)cc2C)c1O
-- reply 95

-- ask # get_value(readout='Plant response rating, Surinam Grass', item= CCCc1cc(-c2ccc(C(F)(F)F)cc2)nn1-c1c(O)cnn(C)c1=O )
-- reply 85

-- ask Dear colleague, I am looking for the recorded Plant response rating, Surinam Grass of the following molecule: Cc1cc(-c2ccc(Cl)cc2)nn1-c1c(OS(=O)(=O)C(C)C)cnn(C)c1=O
-- reply 90

-- ask Given the entry CCc1cc(-c2ccc(C(F)(F)F)cc2)nn1-c1c(O)c(OC)nn(C)c1=O , report its measured Plant response rating, Surinam Grass.
-- reply 98
